# TEST CONDITIONS: in ethanol, 308.15 K
METRIC NAME: solubility (mole fraction)
Numbers only.

Fill in: solubility (mole fraction) of `C[C@H]1[C@H](C)CC[C@]2(C(=O)O[C@@H]3O[C@H](CO[C@@H]4O[C@H](CO)[C@@H](O[C@@H]5O[C@@H](C)[C@H](O)[C@@H](O)[C@H]5O)[C@H](O)[C@H]4O)[C@@H](O)[C@H](O)[C@H]3O)CC[C@]3(C)C(=CC[C@@H]4[C@@]5(C)C[C@@H](O)[C@H](O)[C@@](C)(CO)[C@@H]5CC[C@]43C)[C@H]12` is ___
0.000146
